Tested on: P388 leukemia ip, CD2F1 mice, survival T/C
procedure-text: NCI In Vivo Anticancer Drug Screen. Data for tumor model P388 Leukemia (intraperitoneal) in CD2F1 (CDF1) mice
test-context: endpoint: median survival time; dose: 240.0 mg/kg/injection; schedule: Q01DX005 (ip); vehicle: saline with Tween-80; higher = longer survival
Toxic doses and inconclusive results are not listed.
So I've got a bunch of molecules here, and I need their T/C values.

Study these solved cases before continuing.
molecule: COC(=O)c1cc2c(cc1C(=O)OC)C(=O)c1ccccc1C2=O
T/C: 92 % of control
--
molecule: CC(C)(C)OC(=O)C(N(Cc1ccccc1)Cc1ccccc1)N(Cc1ccccc1)Cc1ccccc1
T/C: 86 % of control
--
molecule: O=C(CNC(=O)Nc1cccc([N+](=O)[O-])c1)NNC(=O)Nc1ccc(Cl)c([N+](=O)[O-])c1
T/C: 106 % of control
--
molecule: O=C(O)c1c2c(nc3ccccc13)CCC(C(=O)O)C2 (configuration not stated)
T/C: 96 % of control
--
molecule: Cc1sc2ccccc2c(=O)c1CO
T/C: 97 % of control

Would you mind listing T/C for each of the following molecules?
1. COc1ccc(C2COc3cc4c(cc3C2)OCO4)cc1 (configuration not stated)
2. N#CC1=C(N)OC(c2ccccc2)=C(C#N)C1c1ccccc1 (configuration not stated)
3. CCC(C)SSc1ccccc1C(=O)Nc1ccc(Cl)cc1 (configuration not stated)
4. COC(=O)CC1CSCC1=O (configuration not stated)

output:
1. 96 % of control
2. 91 % of control
3. 99 % of control
4. 105 % of control

Would you mind listing T/C for each of the following molecules?
1. NC(CCC(N)C(=O)c1ccccc1)C(=O)c1ccccc1 (configuration not stated)
2. C=C(CBr)CCCCC
3. Cc1ccc(S(=O)(=O)N/N=C2/C(=O)NC(=O)C(=O)C2c2nc3ccccc3s2)cc1 (configuration not stated)

output:
93 % of control
117 % of control
100 % of control

----------
Tested on: P388 leukemia ip, CD2F1 mice, survival T/C
procedure-text: NCI In Vivo Anticancer Drug Screen. Data for tumor model P388 Leukemia (intraperitoneal) in CD2F1 (CDF1) mice
test-context: endpoint: median survival time; dose: 50.0 mg/kg/injection; schedule: Q01DX005 (ip); vehicle: Klucel (hydroxypropylcellulose) (HPC); higher = longer survival
Inconclusive results and toxic doses are left out.
So I've got a bunch of compounds here, and I need their T/C values.

Study these solved cases before continuing.
compound: CC(=O)O[C@@H]1C[C@@]2(C)C(CC(=O)[C@@H](C)[C@@H]2CC(=O)c2ccoc2)[C@@H](CO)[C@@H]1O (stereo partly drawn)
T/C: 109 % of control
--
compound: O=c1[nH]c(=O)c2[nH]c(N=Nc3ccc(S(=O)(=O)O)cc3)nc2[nH]1
T/C: 95 % of control

Would you mind listing T/C for each of the following compounds?
1. Cc1nc2[nH]ncc2c(=O)n1-c1ccccc1
2. OCC(O)C(O)C(O)c1nn(-c2ccccc2)c2nc3ccc(Cl)cc3nc12 (stereo not drawn)
3. Oc1ccccc1-c1cc(-c2ccccc2)nc(NCCCCNc2nc(-c3ccccc3)cc(-c3ccccc3O)n2)n1
4. CNC(=O)c1ccccc1NC(=O)c1ccccc1N=[N+]=[N-]
5. CCOC(=O)C(/C=N\c1[nH]ncc1C#N)=C(/C(=O)OCC)c1ccc(O)cc1
6. CCN1C(=O)CC(SC2CC(=O)N(CC)C2=O)C1=O (stereo not drawn)

output:
["97 % of control", "90 % of control", "94 % of control", "100 % of control", "110 % of control", "99 % of control"]

----------
System: P388 leukemia ip, CD2F1 mice, survival T/C
procedure-text: NCI In Vivo Anticancer Drug Screen. Data for tumor model P388 Leukemia (intraperitoneal) in CD2F1 (CDF1) mice
test-context: endpoint: median survival time; dose: 50.0 mg/kg/injection; schedule: Q04DX003 (ip); vehicle: saline with Tween-80; higher = longer survival
Inconclusive results and toxic doses are left out.
metric: T/C

Study these solved cases before continuing.
compound: C/C(=N\N=C(\[Se])N1CC(C)OC(C)C1)c1ccccn1 (configuration not stated)
assayed-system: P388 leukemia ip, CD2F1 mice, survival T/C
metric: T/C
readout-value: 107 % of control
--
compound: Fc1ccc(Oc2ccc(F)cc2)cc1
assayed-system: P388 leukemia ip, CD2F1 mice, survival T/C
metric: T/C
readout-value: 106 % of control
--
compound: COc1cc(C=Nc2cc(Cl)ccc2-n2ccnc2C)ccc1N(CCCl)CCCl
assayed-system: P388 leukemia ip, CD2F1 mice, survival T/C
metric: T/C
readout-value: 222 % of control
--
compound: Nc1nc(=S)c2ncn(C3OC(COC(=O)c4ccc(Cl)cc4)C(OC(=O)c4ccc(Cl)cc4)C3OC(=O)c3ccc(Cl)cc3)c2[nH]1 (configuration not stated)
assayed-system: P388 leukemia ip, CD2F1 mice, survival T/C
metric: T/C
readout-value: 100 % of control
--
compound: Nc1nc(N)c2nc(Sc3ccc(Cl)cc3)c(-c3ccccc3)nc2n1
assayed-system: P388 leukemia ip, CD2F1 mice, survival T/C
metric: T/C
readout-value: 91 % of control

Would you mind listing T/C for each of the following compounds?
1. Cc1c2ccncc2cc2c1[nH]c1ccccc12
2. CC(C)OC(=O)Nc1nc2ccc(C(=O)OC(C)C)cc2[nH]1
3. CCc1nnc(NC(=S)NC(=O)OC)s1
4. c1cc(C2CCOCC2)ccn1
5. CCCCNc1nc(SC)nc2nc[nH]c12

output:
1: 160 % of control; 2: 102 % of control; 3: 105 % of control; 4: 95 % of control; 5: 100 % of control

Would you mind listing T/C for each of the following compounds?
1. CCCNC(=O)NS(=O)(=O)c1ccc(Cl)cc1
2. COP(=O)(O)OC.[V]

output:
102 % of control
96 % of control

----------
So I've got a bunch of molecules here, and I need their T/C values.
Tested on: P388 leukemia ip, CD2F1 mice, survival T/C
procedure-text: NCI In Vivo Anticancer Drug Screen. Data for tumor model P388 Leukemia (intraperitoneal) in CD2F1 (CDF1) mice
test-context: endpoint: median survival time; dose: 200.0 mg/kg/injection; schedule: Q04DX002 (ip); vehicle: saline with Tween-80; higher = longer survival
Inconclusive results and toxic doses are left out.

Study these solved cases before continuing.
molecule: [Cu+2].[O-]/C(=N\N=C\c1ccccn1)c1ccc(Cl)cc1.[O-]/C(=N\N=C\c1ccccn1)c1ccc(Cl)cc1
readout-value: 90 % of control
//
molecule: CN1C2CCC1C(C(=O)O)C(O)C2 (stereo not given)
readout-value: 96 % of control

Would you mind listing T/C for each of the following molecules?
1. C[n+]1cccc2c1C(=O)C(=O)c1c-2ccc[n+]1C
2. COC(=O)c1ccc(OC)c(OC)c1-c1c(C(=O)OC)c(C(=O)OC)c2n1CCc1cc3c(cc1-2)OCO3
3. [Cu+2].[O-]/C(=N\N=C\c1ccccn1)c1ccccc1O.[O-]/C(=N\N=C\c1ccccn1)c1ccccc1O

output:
1. 105 % of control
2. 90 % of control
3. 94 % of control

----------
Tested on: P388 leukemia ip, CD2F1 mice, survival T/C
procedure-text: NCI In Vivo Anticancer Drug Screen. Data for tumor model P388 Leukemia (intraperitoneal) in CD2F1 (CDF1) mice
test-context: endpoint: median survival time; dose: 25.0 mg/kg/injection; schedule: Q01DX009 (ip); vehicle: other; higher = longer survival
Inconclusive results and toxic doses are left out. Peptide text beside a SMILES is read from it. * marks the point of attachment. Boc = CC(C)(C)OC(=O)*; NHNH2 = NN*
metric: T/C

Study these solved cases before continuing.
molecule: O=C(NC(Cc1ccccc1)C(=O)O)c1ccc([N+](=O)[O-])cc1 (stereo not given)
assayed-system: P388 leukemia ip, CD2F1 mice, survival T/C
T/C: 97 % of control
//
molecule: C[N+]1=C(c2ccc(Br)cc2)OCC1(C)C
assayed-system: P388 leukemia ip, CD2F1 mice, survival T/C
T/C: 104 % of control
//
molecule: COc1cc2ccc(C(C)=O)c(O)c2cc1OC
assayed-system: P388 leukemia ip, CD2F1 mice, survival T/C
T/C: 101 % of control
//
molecule: COc1ccc(CCNc2ccc(NCCc3ccc(OC)c(OC)c3)c3c2C(=O)c2ccccc2C3=O)cc1OC
assayed-system: P388 leukemia ip, CD2F1 mice, survival T/C
T/C: 88 % of control
//
molecule: CC(C)CC(NC(=O)C(Cc1c[nH]c2ccccc12)NC(=O)OC(C)(C)C)C(=O)NN (stereo not drawn) (Boc-Trp-Leu-NHNH2; configuration not given here)
assayed-system: P388 leukemia ip, CD2F1 mice, survival T/C
T/C: 94 % of control

Would you mind listing T/C for each of the following molecules?
1. Cc1cc(NCCCNCCCNc2cc(C)nc3cc([N+](=O)[O-])ccc23)c2ccc([N+](=O)[O-])cc2n1
2. Oc1c[nH]c(=S)s1
3. CC12CCCCC1=CC(=O)CC2 (stereo not given)
4. O=c1c2cc3c(cc2c2cccc4c2n1CC4)OCO3
5. COC(=O)C(CSC(c1ccccc1)(c1ccccc1)c1ccccc1)NC(=O)CCNC(=O)OCc1ccccc1 (stereo not given)

output:
["121 % of control", "106 % of control", "100 % of control", "96 % of control", "94 % of control"]

Values were extracted from PubChem BioAssay AID330.
